Recorded values, source the supplement of paper PMC10307832.

test system: EKVX; assay: relative viability (nuclei count vs DMSO), 5 days (fraction); higher = more cells survive; details: first compound 2 µM
// assign true if relative viability falls strictly below 0.3, else false (ties count as false)

CN1CCN(CCOc2cc(OC3CCOCC3)c3c(Nc4c(Cl)ccc5c4OCO5)ncnc3c2)CC1 [Saracatinib] + Cc1cc(Nc2cc(N3CCN(C)CC3)nc(Sc3ccc(NC(=O)C4CC4)cc3)n2)n[nH]1 [Tozasertib] (partner 0.1 µM) :: true

Query block: Please determine if CN1CCN(CCOc2cc(OC3CCOCC3)c3c(Nc4c(Cl)ccc5c4OCO5)ncnc3c2)CC1 [Saracatinib] + CS(=O)(=O)CCNCc1ccc(-c2ccc3ncnc(Nc4ccc(OCc5cccc(F)c5)c(Cl)c4)c3c2)o1 [Lapatinib] (partner 2 µM) is below 0.3 in terms of relative viability.
Result block: true

Query block: Please determine if Cc1csc(=NC2CCCCC2)n1/N=C/c1ccc(O)c(O)c1O [MIM1] + C[C@]1(O)C[C@@H](c2nc(-c3ccc4ccc(-c5ccccc5)nc4c3)c3c(N)nccn32)C1 [Linsitinib] (partner 1 µM) is below 0.3 in terms of relative viability.
Result block: false

Query block: Please determine if Cc1csc(=NC2CCCCC2)n1/N=C/c1ccc(O)c(O)c1O [MIM1] + CC(=O)Nc1cccc(-n2c(=O)n(C3CC3)c(=O)c3c(Nc4ccc(I)cc4F)n(C)c(=O)c(C)c32)c1 [Trametinib] (partner 0.02 µM) is below 0.3 in terms of relative viability.
Result block: true

Query block: Please determine if Cc1csc(=NC2CCCCC2)n1/N=C/c1ccc(O)c(O)c1O [MIM1] + NC(=O)Nc1cc(-c2cccc(F)c2)sc1C(=O)N[C@H]1CCCNC1 [AZD7762] (partner 0.2 µM) is below 0.3 in terms of relative viability.
Result block: false

* * *

system: NCI-H2009; assay: relative viability (nuclei count vs DMSO), 5 days (fraction); higher = more cells survive; conditions: first compound 8 µM
// assign TRUE if relative viability falls strictly below 0.8, else FALSE (ties count as FALSE)

Nc1cccc2c1CN(C1CCC(=O)NC1=O)C2=O (stereo unspecified) [Lenalidomide] + O=C(c1cc(Cc2n[nH]c(=O)c3ccccc23)ccc1F)N1CCN(C(=O)C2CC2)CC1 [Olaparib] (partner 8 µM) :: TRUE
Nc1cccc2c1CN(C1CCC(=O)NC1=O)C2=O (stereo unspecified) [Lenalidomide] + C[C@@H](Oc1cc(-c2cnn(C3CCNCC3)c2)cnc1N)c1c(Cl)ccc(F)c1Cl [Crizotinib] (partner 1 µM) :: FALSE
Nc1cccc2c1CN(C1CCC(=O)NC1=O)C2=O (stereo unspecified) [Lenalidomide] + CC(C)C[C@H](NC(=O)[C@H](Cc1ccccc1)NC(=O)c1cnccn1)B(O)O [Bortezomib] (partner 0.002 µM) :: FALSE

Query block: Please determine if Nc1cccc2c1CN(C1CCC(=O)NC1=O)C2=O (stereo unspecified) [Lenalidomide] + COc1cc2c(Oc3ccc(NC(=O)C4(C(=O)Nc5ccc(F)cc5)CC4)cc3F)ccnc2cc1OCCCN1CCOCC1 [Foretinib] (partner 0.25 µM) is below 0.8 in terms of relative viability.
Result block: FALSE

Query block: Please determine if Nc1cccc2c1CN(C1CCC(=O)NC1=O)C2=O (stereo unspecified) [Lenalidomide] + C[C@]1(O)C[C@@H](c2nc(-c3ccc4ccc(-c5ccccc5)nc4c3)c3c(N)nccn32)C1 [Linsitinib] (partner 1 µM) is below 0.8 in terms of relative viability.
Result block: FALSE

Query block: Please determine if Nc1cccc2c1CN(C1CCC(=O)NC1=O)C2=O (stereo unspecified) [Lenalidomide] + COc1cccc2cc(-c3nc([C@H]4CC[C@H](C(=O)O)CC4)n4ncnc(N)c34)[nH]c12 [OSI-027] (partner 0.5 µM) is below 0.8 in terms of relative viability.
Result block: TRUE

* * *

system: NCI-H650; assay: relative viability (nuclei count vs DMSO), 5 days (fraction); higher = more cells survive; conditions: first compound 0.2 µM
relative viability values by entry
// return just the number, without any unit appended

CN1CCN(CCOc2cc(OC3CCOCC3)c3c(Nc4c(Cl)ccc5c4OCO5)ncnc3c2)CC1 [Saracatinib] + O=C(c1cc(Cc2n[nH]c(=O)c3ccccc23)ccc1F)N1CCN(C(=O)C2CC2)CC1 [Olaparib] (partner 8 µM) :: 0.442
CN1CCN(CCOc2cc(OC3CCOCC3)c3c(Nc4c(Cl)ccc5c4OCO5)ncnc3c2)CC1 [Saracatinib] + Cc1nc(NC(=O)N2CCC[C@H]2C(N)=O)sc1-c1ccnc(C(C)(C)C(F)(F)F)c1 [Alpelisib] (partner 2 µM) :: 0.814
CN1CCN(CCOc2cc(OC3CCOCC3)c3c(Nc4c(Cl)ccc5c4OCO5)ncnc3c2)CC1 [Saracatinib] + COc1cccc2cc(-c3nc([C@H]4CC[C@H](C(=O)O)CC4)n4ncnc(N)c34)[nH]c12 [OSI-027] (partner 0.5 µM) :: 0.504

Now for a further compound.
Query block: What measured relative viability is associated with CCNC(=O)c1noc(-c2cc(C(C)C)c(O)cc2O)c1-c1ccc(CN2CCOCC2)cc1 [Luminespib] + COc1cc2c(Oc3ccc(NC(=O)C4(C(=O)Nc5ccc(F)cc5)CC4)cc3F)ccnc2cc1OCCCN1CCOCC1 [Foretinib] (partner 0.25 µM) on NCI-H650?
Result block: 0.149

* * *

test system: NCI-H1915; assay: relative viability (nuclei count vs DMSO), 5 days (fraction); higher = more cells survive; details: first compound 0.253 µM
// assign T if relative viability falls strictly below 0.5, else F (ties count as F)

Here's what some known entries look like.
Nc1cccc2c1CN(C1CCC(=O)NC1=O)C2=O (stereo not given) [Lenalidomide] + O=C(c1cc(Cc2n[nH]c(=O)c3ccccc23)ccc1F)N1CCN(C(=O)C2CC2)CC1 [Olaparib] (partner 8 µM) :: T
Nc1cccc2c1CN(C1CCC(=O)NC1=O)C2=O (stereo not given) [Lenalidomide] + CS(=O)(=O)N1CCN(Cc2cc3nc(-c4cccc5[nH]ncc45)nc(N4CCOCC4)c3s2)CC1 [Pictilisib] (partner 1 µM) :: F
Nc1cccc2c1CN(C1CCC(=O)NC1=O)C2=O (stereo not given) [Lenalidomide] + Cc1nc(Nc2ncc(C(=O)Nc3c(C)cccc3Cl)s2)cc(N2CCN(CCO)CC2)n1 [Dasatinib] (partner 0.075 µM) :: T
Nc1cccc2c1CN(C1CCC(=O)NC1=O)C2=O (stereo not given) [Lenalidomide] + CC(=O)c1c(C)c2cnc(Nc3ccc(N4CCNCC4)cn3)nc2n(C2CCCC2)c1=O [Palbociclib] (partner 0.5 µM) :: F

Now look at this one.
Query block: Please determine if Nc1cccc2c1CN(C1CCC(=O)NC1=O)C2=O (stereo not given) [Lenalidomide] + Cc1cc(Nc2cc(N3CCN(C)CC3)nc(Sc3ccc(NC(=O)C4CC4)cc3)n2)n[nH]1 [Tozasertib] (partner 0.1 µM) is below 0.5 in terms of relative viability.
Result block: T

* * *

relative viability values by entry
test system: ChaGo-K-1; experiment: relative viability (nuclei count vs DMSO), 5 days (fraction); higher = more cells survive; details: first compound 0.06325 µM
// return just the number, without any unit appended

Worked examples, 2 compounds total:
CCNC(=O)c1noc(-c2cc(C(C)C)c(O)cc2O)c1-c1ccc(CN2CCOCC2)cc1 [Luminespib] + CC(=O)c1c(C)c2cnc(Nc3ccc(N4CCNCC4)cn3)nc2n(C2CCCC2)c1=O [Palbociclib] (partner 0.5 µM) :: 0.925
CCNC(=O)c1noc(-c2cc(C(C)C)c(O)cc2O)c1-c1ccc(CN2CCOCC2)cc1 [Luminespib] + COc1cc2c(Oc3ccc(NC(=O)C4(C(=O)Nc5ccc(F)cc5)CC4)cc3F)ccnc2cc1OCCCN1CCOCC1 [Foretinib] (partner 0.25 µM) :: 0.37

Query block: Item CCNC(=O)c1noc(-c2cc(C(C)C)c(O)cc2O)c1-c1ccc(CN2CCOCC2)cc1 [Luminespib] + O=C(c1cc(Cc2n[nH]c(=O)c3ccccc23)ccc1F)N1CCN(C(=O)C2CC2)CC1 [Olaparib] (partner 8 µM) has what recorded relative viability?
Result block: 0.452

Query block: Item CCNC(=O)c1noc(-c2cc(C(C)C)c(O)cc2O)c1-c1ccc(CN2CCOCC2)cc1 [Luminespib] + CC(C)C[C@H](NC(=O)[C@H](Cc1ccccc1)NC(=O)c1cnccn1)B(O)O [Bortezomib] (partner 0.002 µM) has what recorded relative viability?
Result block: 0.528

* * *

system: LOU-NH91; experiment: relative viability (nuclei count vs DMSO), 5 days (fraction); higher = more cells survive; details: first compound 2 µM
// assign true (1) if relative viability falls strictly below 0.6, else false (0) (ties count as false (0))

Here's what some known entries look like.
Cc1csc(=NC2CCCCC2)n1/N=C/c1ccc(O)c(O)c1O [MIM1] + Nc1ncn([C@H]2C[C@H](O)[C@@H](CO)O2)c(=O)n1 [Decitabine] (partner 2 µM) :: false (0)
Cc1csc(=NC2CCCCC2)n1/N=C/c1ccc(O)c(O)c1O [MIM1] + N=C(N)NC(=N)NCCc1ccccc1 [Phenformin] (partner 250 µM) :: false (0)
Cc1csc(=NC2CCCCC2)n1/N=C/c1ccc(O)c(O)c1O [MIM1] + CS(=O)(=O)CCNCc1ccc(-c2ccc3ncnc(Nc4ccc(OCc5cccc(F)c5)c(Cl)c4)c3c2)o1 [Lapatinib] (partner 2 µM) :: false (0)
Cc1csc(=NC2CCCCC2)n1/N=C/c1ccc(O)c(O)c1O [MIM1] + Nc1nc2[nH]cc(CCc3ccc(C(=O)N[C@@H](CCC(=O)O)C(=O)O)cc3)c2c(=O)[nH]1 [Pemetrexed] (partner 0.2 µM) :: true (1)
CN1CCN(CCOc2cc(OC3CCOCC3)c3c(Nc4c(Cl)ccc5c4OCO5)ncnc3c2)CC1 [Saracatinib] + Nc1ncn([C@H]2C[C@H](O)[C@@H](CO)O2)c(=O)n1 [Decitabine] (partner 2 µM) :: false (0)

Now look at this one.
Query block: Please determine if Cc1csc(=NC2CCCCC2)n1/N=C/c1ccc(O)c(O)c1O [MIM1] + C[C@@H](Oc1cc(-c2cnn(C3CCNCC3)c2)cnc1N)c1c(Cl)ccc(F)c1Cl [Crizotinib] (partner 1 µM) is below 0.6 in terms of relative viability.
Result block: false (0)
